In this section we review reported log10 of IC50 values for a set of molecules.
Test system: MDA-MB-231
protocol_text: Cytotoxicity against human MDA-MB-231 cells assessed as inhibition of cell proliferation measured after 72 hrs by MTT assay
Assay type: functional, cell-based
measurement_conditions: MDA-MB-231, 72 h
parameter: log10 of IC50 (log10 of the value in µM)

* CCCCC/C(=N\S(=O)(=O)Cc1ccccc1)Nc1ccc(Oc2ccnc3ccsc23)c(F)c1 | 1.18
* COc1cc2nccc(Oc3ccc(N/C(CC4CCCCC4)=N\S(=O)(=O)Cc4ccccc4)cc3F)c2cc1OC | 1.31
* COc1cc2nccc(Oc3ccc(N/C(Cc4cccnc4)=N\S(=O)(=O)Cc4ccc(F)cc4)cc3F)c2cc1OC | 1.35
* CCCCC/C(=N\S(=O)(=O)Cc1ccccc1)Nc1ccc(Oc2ccnc3cc(OC)c(OC)cc23)c(F)c1 | 1.11
* COCC/C(=N\S(=O)(=O)Cc1ccc(Cl)cc1)Nc1ccc(Oc2ccnc3cc(OCCCN4CCCCC4)c(OC)cc23)c(F)c1 | 0.05
* CCCCC/C(=N\S(=O)(=O)Cc1ccc(F)cc1)Nc1ccc(Oc2ncnc3cc(OC)c(OC)cc23)c(F)c1 | 1.50
* COCC/C(=N\S(=O)(=O)Cc1ccc(Cl)cc1)Nc1ccc(Oc2ccnc3cc(OCCCN4CCN(C)CC4)c(OC)cc23)c(F)c1 | 0.09
* CCCCC/C(=N\S(=O)(=O)Cc1ccc(F)cc1)Nc1ccc(Oc2ncnc3ccsc23)c(F)c1 | 1.23
